Provenance of the data: paper PMC3848914

Tested on: Jurkat cells
experiment-notes: Antiproliferative activity assay (WST-8), Jurkat cells
Type: cell-based, human
condition-parameters: compounds; 24 h; read-out: IC50 values, Jurkat cells 24 h
Method: Cells were seeded in a 96-well plate at cell density of 10^4 cells/well and incubated for 24 hours. […] Absorbance (A) was measured at 415 nm using a microtiter plate reader (Bio-Rad Laboratories, Hercules, CA, U.S.A.). The absorbance at 655 nm was used as a reference wavelength. Cell proliferation or cell growth was determined as a percentage of the vehicle control by an equation of; […]
property-measured: IC50

Identify the reported IC50 for the following entry. CCCC(=O)[O-].[Na+] [Sodium butyrate, sodium butyrate]
> 3000 µM

---

System: HCT116 cells
experiment-notes: Antiproliferative activity assay (WST-8), HCT116 cells
Format: cell-based, human
condition-parameters: Homo sapiens, HCT-116; compounds; 48 h; read-out: IC50 values, HCT116 cells 48 h
property-measured: pIC50
Give bare numbers, as −log10 of the molar value.

Identify the reported pIC50 for the following entry. "COc1cc(/C=C/C(=O)O)cc(OC)c1O"
2.66

---

System: HT29 cells
experiment-notes: Antiproliferative activity assay (WST-8), HT29 cells
Format: cell-based, human
condition-parameters: compounds; 24 h; read-out: IC50 values, HT29 cells 24 h
property-measured: IC50

Identify the reported IC50 for the following entry. CCCC(=O)[O-].[Na+] [Sodium butyrate, sodium butyrate]
> 3 mM

---

System: MCF-7 cells
experiment-notes: Antiproliferative activity assay (WST-8), MCF-7 cells
Type: cell-based, human
condition-parameters: compounds; 24 h; read-out: IC50 values, MCF-7 cells 24 h
property-measured: IC50

Identify the reported IC50 for the following entry. CCCC(=O)[O-].[Na+] [Sodium butyrate, sodium butyrate]
> 3 mM

---

Tested on: Vero cells
experiment-notes: Antiproliferative activity assay (WST-8), Vero cells
Format: cell-based
condition-parameters: compounds; 72 h; read-out: IC50 values, Vero cells 72 h
pIC50: −log10 of the molar value.
property-measured: pIC50

// output pIC50; input CCCC(=O)[O-].[Na+] [Sodium butyrate, sodium butyrate] ; system Vero cells
< 2.52

---

System: HCT116 cells
experiment-notes: Antiproliferative activity assay (WST-8), HCT116 cells
Format: cell-based, human
condition-parameters: compounds; 24 h; read-out: IC50 values, HCT116 cells 24 h
Description: Cells were seeded in a 96-well plate at cell density of 10^4 cells/well and incubated for 24 hours. […] Absorbance (A) was measured at 415 nm using a microtiter plate reader (Bio-Rad Laboratories, Hercules, CA, U.S.A.). The absorbance at 655 nm was used as a reference wavelength. Cell proliferation or cell growth was determined as a percentage of the vehicle control by an equation of; […]
pIC50: −log10 of the molar value.
property-measured: pIC50

// output pIC50; input CCCC(=O)[O-].[Na+] [Sodium butyrate, sodium butyrate] ; system HCT116 cells
< 2.52

---

Tested on: HT29 cells
experiment-notes: Antiproliferative activity assay (WST-8), HT29 cells
Type: cell-based, human
condition-parameters: Homo sapiens, HT-29; compounds; 24 h; read-out: IC50 values, HT29 cells 24 h
property-measured: IC50 (µM)
Answers are plain numbers, in µM.

Identify the reported IC50 for the following entry. "COc1cc(/C=C/C(=O)O)cc(OC)c1O"
2970

---

Test system: HCT116 cells
experiment-notes: Antiproliferative activity assay (WST-8), HCT116 cells
Assay type: cell-based, human
condition-parameters: compounds; 72 h; read-out: IC50 values, HCT116 cells 72 h
property-measured: IC50

// output IC50; input CCCC(=O)[O-].[Na+] [Sodium butyrate, sodium butyrate] ; system HCT116 cells
2000 µM

---

Tested on: Jurkat cells
experiment-notes: Antiproliferative activity assay (WST-8), Jurkat cells
Format: cell-based, human
condition-parameters: compounds; 72 h; read-out: IC50 values, Jurkat cells 72 h
property-measured: pIC50
Answers are plain numbers, as −log10 of the molar value.

Identify the reported pIC50 for the following entry. CCCC(=O)[O-].[Na+] [Sodium butyrate, sodium butyrate]
2.82

---

Test system: MCF-7 cells
experiment-notes: Antiproliferative activity assay (WST-8), MCF-7 cells
Assay type: cell-based, human
condition-parameters: Homo sapiens, MCF7; compounds; 72 h; read-out: IC50 values, MCF-7 cells 72 h
pIC50: −log10 of the molar value.
property-measured: pIC50

Identify the reported pIC50 for the following entry. "COc1cc(/C=C/C(=O)O)cc(OC)c1O"
< 2.52

---

Tested on: HeLa cells
experiment-notes: Antiproliferative activity assay (WST-8), HeLa cells
Assay type: cell-based, human
condition-parameters: compounds; 24 h; read-out: IC50 values, HeLa cells 24 h
property-measured: IC50 (µM)
Numbers only, in µM.

Identify the reported IC50 for the following entry. CCCC(=O)[O-].[Na+] [Sodium butyrate, sodium butyrate]
2630
